These compounds were tested on SRC (Homo sapiens); IC50 is the recorded read-out.
measurementLabel: IC50

>>> reportedmeasurement("COc1c(C)cc(-c2cc3nccc(Nc4ccc5[nH]ccc5c4C)c3o2)cc1C")
"< 0.3 µM"
>>> reportedmeasurement("COc1cccc(-c2cc3nccc(Nc4ccc5[nH]ccc5c4C)c3o2)c1OC")
"< 0.3 µM"
>>> reportedmeasurement("COc1ccc(OC)c(-c2cc3nccc(-c4cccc(C(=O)N[C@@H]5CCCC[C@@H]5N)c4)c3o2)c1")
"< 0.3 µM"
>>> reportedmeasurement("COc1ccc(-c2cc3nccc(Nc4ccc5[nH]ccc5c4C)c3o2)cc1OC")
"< 0.3 µM"
>>> reportedmeasurement("COc1cc(-c2cc3nccc(Nc4ccc5cn[nH]c5c4)c3o2)cc(OC)c1OC")
"3 to 50 µM"
>>> reportedmeasurement("COc1cc(-c2cc3nccc(-c4c(F)cccc4OC)c3o2)cc(OC)c1OC")
"3 to 50 µM"
>>> reportedmeasurement("COc1ccc(-c2cc3nccc(-c4ccccc4)c3o2)cc1NC(=O)[C@@H]1C[C@@H](O)CN1")
"3 to 50 µM"
>>> reportedmeasurement("COc1ccc(-c2cc3nccc(Nc4ccc5[nH]ccc5c4C)c3o2)cc1C")
"0.3 to 3 µM"
>>> reportedmeasurement("COc1cc(-c2cc3nccc(-c4ccnc(NCC5CCCNC5)c4)c3o2)cc(OC)c1OC (centres unmarked)")
"< 0.3 µM"
>>> reportedmeasurement("COc1cccc(-c2cc3nccc(Nc4ccc5[nH]ccc5c4C)c3o2)c1")
"< 0.3 µM"
>>> reportedmeasurement("COc1cc(-c2cc3nccc(Nc4ccc(Sc5nccn5C)c(Cl)c4)c3o2)cc(OC)c1OC")
"3 to 50 µM"
>>> reportedmeasurement("COc1ccc(-c2cc3nccc(Nc4ccc5[nH]ccc5c4C)c3o2)cc1")
"0.3 to 3 µM"
>>> reportedmeasurement("COc1cc(-c2cc3nccc(-c4c[nH]nc4C)c3o2)cc(OC)c1OC")
"0.3 to 3 µM"
>>> reportedmeasurement("COc1cc(-c2cc3nccc(-c4cnc5c(c4)CCCO5)c3o2)cc(OC)c1OC")
"0.3 to 3 µM"

* * *

# targetOrTestSystem: SRC (Homo sapiens, UniProt P12931)
# Sequence (P12931 whole entry): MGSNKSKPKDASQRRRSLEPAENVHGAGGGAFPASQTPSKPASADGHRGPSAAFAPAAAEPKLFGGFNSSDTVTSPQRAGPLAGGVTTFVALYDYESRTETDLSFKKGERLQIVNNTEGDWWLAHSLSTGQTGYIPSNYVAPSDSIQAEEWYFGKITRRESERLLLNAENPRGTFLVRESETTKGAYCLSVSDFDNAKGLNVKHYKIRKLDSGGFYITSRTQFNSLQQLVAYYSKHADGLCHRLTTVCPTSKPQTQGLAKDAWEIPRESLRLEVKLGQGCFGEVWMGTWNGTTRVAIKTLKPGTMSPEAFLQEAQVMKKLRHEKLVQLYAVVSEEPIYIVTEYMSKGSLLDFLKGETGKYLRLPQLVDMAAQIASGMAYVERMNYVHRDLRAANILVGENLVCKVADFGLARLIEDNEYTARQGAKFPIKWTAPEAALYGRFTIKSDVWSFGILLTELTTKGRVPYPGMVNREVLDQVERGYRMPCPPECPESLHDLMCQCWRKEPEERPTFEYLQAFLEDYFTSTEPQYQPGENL
pIC50: −log10 of the molar value.
measurementLabel: pIC50

>>> reportedmeasurement("COc1cc(-c2cc3nccc(-c4ccc(C(=O)O)cc4)c3o2)cc(OC)c1OC")
"4.30 to 5.52"
>>> reportedmeasurement("COc1cc(-c2cc3nccc(-c4cccc(CN)c4)c3o2)cc(OC)c1OC")
"4.30 to 5.52"
>>> reportedmeasurement("Cc1c(Nc2ccnc3cc(-c4ccc5c(c4)OCCO5)oc23)ccc2[nH]ccc12")
"> 6.52"
>>> reportedmeasurement("COc1cc(-c2cc3nccc(-c4cn[nH]c4)c3o2)cc(OC)c1OC")
"5.52 to 6.52"
>>> reportedmeasurement("Cc1c(Nc2ccnc3cc(-c4ccc(N5CCOCC5)cc4)oc23)ccc2[nH]ccc12")
"> 6.52"
>>> reportedmeasurement("COc1ccc(OC)c(-c2cc3nccc(-c4cnn(C)c4)c3o2)c1")
"5.52 to 6.52"
>>> reportedmeasurement("COc1cc(-c2cc3nccc(-c4cccc(C(=O)NCC5CCCN5)c4)c3o2)cc(OC)c1OC (centres unmarked)")
"4.30 to 5.52"
>>> reportedmeasurement("Cc1noc(C)c1-c1cc2nccc(-c3c(C)noc3C)c2o1")
"4.30 to 5.52"

* * *

pIC50: −log10 of the molar value.
These compounds were tested on Syk (Homo sapiens, UniProt P43405); pIC50 is the recorded read-out.
measurementLabel: pIC50

>>> reportedmeasurement("COc1cc(-c2cc3nccc(-c4cccc(O)c4)c3o2)cc(OC)c1OC")
"> 6.52"
>>> reportedmeasurement("COc1ccc(-c2cc3nccc(Nc4ccc5[nH]ccc5c4C)c3o2)cc1C")
"5.52 to 6.52"
>>> reportedmeasurement("Cn1cc(-c2ccnc3cc(-c4cccc(N)c4)oc23)cn1")
"> 6.52"
>>> reportedmeasurement("CNC(=O)c1ccc(-c2ccnc3cc(-c4cc(OC)c(OC)c(OC)c4)oc23)cc1")
"> 6.52"
>>> reportedmeasurement("COc1ccc(OC)c(-c2cc3nccc(-c4cnn(C)c4)c3o2)c1")
"> 6.52"
>>> reportedmeasurement("COc1cc(-c2cc3nccc(-c4cccc5ccccc45)c3o2)cc(OC)c1OC")
"5.52 to 6.52"
>>> reportedmeasurement("CNC(=O)c1ccccc1Nc1ccnc2cc(-c3cc(OC)c(OC)c(OC)c3)oc12")
"5.52 to 6.52"
>>> reportedmeasurement("COc1cc(-c2cc3nccc(-c4ccccc4C)c3o2)cc(OC)c1OC")
"> 6.52"
>>> reportedmeasurement("Cn1cc(-c2ccnc3cc(-c4ccc5cnn(C)c5c4)oc23)cn1")
"> 6.52"

* * *

# targetOrTestSystem: UniProtKB P43405
# IC50 per record follows
measurementLabel: IC50

>>> reportedmeasurement("COc1cc(-c2cc3nccc(NCc4cccnc4N(C)S(C)(=O)=O)c3o2)cc(OC)c1OC")
"3000 to 50000 nM"
>>> reportedmeasurement("COc1cc(-c2cc3nccc(-c4cccc(C(=O)NCCO)c4)c3o2)cc(OC)c1OC")
"< 300 nM"
>>> reportedmeasurement("COc1cc(-c2cc3nccc(-c4c[nH]nc4C)c3o2)cc(OC)c1OC")
"< 300 nM"
>>> reportedmeasurement("COc1cc(-c2cc3nccc(-c4cc(C)c(OC)c(C)c4)c3o2)cc(OC)c1OC")
"300 to 3000 nM"

* * *

# IC50 per record follows
# targetOrTestSystem: Syk (Homo sapiens, UniProt P43405)
measurementLabel: IC50

>>> reportedmeasurement("CC(C)Cn1cc(-c2cc3nccc(-c4cnn(C)c4)c3o2)cn1 [Compound C6]")
"0.3 to 3 µM"
>>> reportedmeasurement("COc1cc(-c2cc3nccc(-c4ccc(C)cc4C)c3o2)cc(OC)c1OC [Compound A32]")
"0.3 to 3 µM"
>>> reportedmeasurement("COc1cc(-c2cc3nccc(Nc4ccc(Sc5nccn5C)c(Cl)c4)c3o2)cc(OC)c1OC [Compound B16]")
"3 to 50 µM"
>>> reportedmeasurement("COc1c(C)cc(-c2cc3nccc(-c4cc(C)c(OC)c(C)c4)c3o2)cc1C [Compound B32]")
"3 to 50 µM"
>>> reportedmeasurement("O=C(Nc1ccc(Oc2ccnc3cc(-c4ccccc4)oc23)cc1)c1cccn(-c2ccc(F)cc2)c1=O [Compound B13]")
"0.3 to 3 µM"
>>> reportedmeasurement("Cn1cc(-c2ccnc3cc(-c4ccc(OCC(O)CN5CCCCC5)cc4)oc23)cn1 (centres unmarked) [Compound C38]")
"0.3 to 3 µM"
>>> reportedmeasurement("CC(C)(C#N)c1ccc(-c2cc3nccc(-c4ccc(C(C)(C)C#N)cc4)c3o2)cc1 [Compound B55]")
"0.3 to 3 µM"
>>> reportedmeasurement("COc1cc(-c2cc3nccc(-c4ccc5[nH]c(=O)[nH]c5c4)c3o2)cc(OC)c1OC [Compound C56]")
"< 0.3 µM"

* * *

These compounds were tested on KDR (Homo sapiens, UniProt P35968); pIC50 is the recorded read-out.
Sequence (P35968 20-1356): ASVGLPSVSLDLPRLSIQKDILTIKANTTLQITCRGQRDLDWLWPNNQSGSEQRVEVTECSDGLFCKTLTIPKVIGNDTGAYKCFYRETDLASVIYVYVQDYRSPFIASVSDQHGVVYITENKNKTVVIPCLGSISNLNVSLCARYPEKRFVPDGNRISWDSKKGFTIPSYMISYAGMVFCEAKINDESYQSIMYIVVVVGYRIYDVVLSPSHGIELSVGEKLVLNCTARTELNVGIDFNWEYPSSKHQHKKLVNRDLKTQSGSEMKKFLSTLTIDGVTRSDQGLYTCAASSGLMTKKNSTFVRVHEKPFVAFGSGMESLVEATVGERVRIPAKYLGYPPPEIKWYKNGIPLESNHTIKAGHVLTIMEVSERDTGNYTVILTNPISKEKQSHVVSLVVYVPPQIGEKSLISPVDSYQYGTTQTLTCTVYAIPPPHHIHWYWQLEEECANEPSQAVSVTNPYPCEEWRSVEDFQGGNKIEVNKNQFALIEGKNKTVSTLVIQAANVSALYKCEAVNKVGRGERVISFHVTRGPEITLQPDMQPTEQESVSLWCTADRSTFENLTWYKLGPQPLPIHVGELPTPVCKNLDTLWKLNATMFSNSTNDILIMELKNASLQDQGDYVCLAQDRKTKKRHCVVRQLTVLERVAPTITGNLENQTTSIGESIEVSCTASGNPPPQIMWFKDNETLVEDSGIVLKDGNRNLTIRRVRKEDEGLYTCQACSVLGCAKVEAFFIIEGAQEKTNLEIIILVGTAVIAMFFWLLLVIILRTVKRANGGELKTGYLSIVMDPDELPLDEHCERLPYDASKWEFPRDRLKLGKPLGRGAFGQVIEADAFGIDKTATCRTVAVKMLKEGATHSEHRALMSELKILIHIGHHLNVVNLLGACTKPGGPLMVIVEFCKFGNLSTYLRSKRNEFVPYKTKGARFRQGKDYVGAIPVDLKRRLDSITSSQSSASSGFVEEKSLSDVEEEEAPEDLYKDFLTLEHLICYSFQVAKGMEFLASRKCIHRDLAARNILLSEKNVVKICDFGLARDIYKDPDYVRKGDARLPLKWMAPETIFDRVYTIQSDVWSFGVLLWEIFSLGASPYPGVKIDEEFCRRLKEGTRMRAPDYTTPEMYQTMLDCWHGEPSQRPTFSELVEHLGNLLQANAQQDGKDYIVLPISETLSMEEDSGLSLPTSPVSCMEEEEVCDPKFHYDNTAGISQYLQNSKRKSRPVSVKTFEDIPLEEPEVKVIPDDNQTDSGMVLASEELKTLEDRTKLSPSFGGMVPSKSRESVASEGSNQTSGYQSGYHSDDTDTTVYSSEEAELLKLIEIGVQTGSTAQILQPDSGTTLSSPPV
pIC50: −log10 of the molar value.
measurementLabel: pIC50

>>> reportedmeasurement("CNC(=O)c1ccc(-c2ccnc3cc(-c4cc(OC)c(OC)c(OC)c4)oc23)cc1")
"5.52 to 6.52"
>>> reportedmeasurement("COc1cccc(-c2cc3nccc(Nc4ccc5[nH]ccc5c4C)c3o2)c1OC")
"> 6.52"
>>> reportedmeasurement("O=C(Nc1cccc(-c2cc3nccc(-c4ccccc4)c3o2)c1)[C@@H]1CCCN1")
"5.52 to 6.52"
>>> reportedmeasurement("COc1cc(-c2cc3nccc(-c4cc(OC(F)(F)F)cc(C(=O)O)c4)c3o2)cc(OC)c1OC")
"5.52 to 6.52"

* * *

These compounds were tested on UniProt:Q06187; IC50 is the recorded read-out.
Sequence (Q06187 whole entry): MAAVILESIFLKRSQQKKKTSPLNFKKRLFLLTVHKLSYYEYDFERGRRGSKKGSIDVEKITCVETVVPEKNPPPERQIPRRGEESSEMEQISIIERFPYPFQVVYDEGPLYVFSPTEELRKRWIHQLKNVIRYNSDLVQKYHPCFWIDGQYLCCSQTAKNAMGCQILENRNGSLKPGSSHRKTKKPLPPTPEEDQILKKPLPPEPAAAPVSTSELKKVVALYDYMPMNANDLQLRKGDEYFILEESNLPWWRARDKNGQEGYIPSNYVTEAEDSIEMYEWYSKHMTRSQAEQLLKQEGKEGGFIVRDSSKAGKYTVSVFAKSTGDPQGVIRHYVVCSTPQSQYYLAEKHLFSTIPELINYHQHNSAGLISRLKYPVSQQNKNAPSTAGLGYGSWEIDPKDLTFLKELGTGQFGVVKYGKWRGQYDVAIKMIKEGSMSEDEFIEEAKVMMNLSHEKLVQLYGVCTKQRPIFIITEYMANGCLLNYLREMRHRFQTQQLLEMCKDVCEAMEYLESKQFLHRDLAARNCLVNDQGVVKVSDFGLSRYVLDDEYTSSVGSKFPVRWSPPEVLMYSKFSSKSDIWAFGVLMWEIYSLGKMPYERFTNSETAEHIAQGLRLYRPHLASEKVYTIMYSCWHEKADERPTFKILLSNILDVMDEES
measurementLabel: IC50

>>> reportedmeasurement("Cn1cc(-c2ccnc3cc(-c4ccc5nc[nH]c5c4)oc23)cn1 [Compound C123]")
"3 to 50 µM"
>>> reportedmeasurement("O=C(CCl)Nc1cccc(Oc2ccnc3cc(-c4ccccc4)oc23)c1 [Compound D20]")
"< 0.3 µM"
>>> reportedmeasurement("Cc1cc2nccc(Oc3cccc(NC(=O)CCl)c3)c2o1 [Compound D27]")
"< 0.3 µM"
>>> reportedmeasurement("OCc1ccc(-c2cc3nccc(-c4ccc(CO)cc4)c3o2)cc1 [Compound B44]")
"3 to 50 µM"
>>> reportedmeasurement("CCC(=O)Nc1cccc(Oc2ccnc3cc(-c4ccccc4)oc23)c1 [Compound D21]")
"3 to 50 µM"
>>> reportedmeasurement("C=CC(=O)NCc1ccc(-c2ccnc3cc(-c4ccccc4)oc23)cc1 [Compound D25]")
"0.3 to 3 µM"
>>> reportedmeasurement("CCC(=O)Nc1cccc(-c2ccnc3cc(C)oc23)c1 [Compound D29]")
"3 to 50 µM"
>>> reportedmeasurement("CCC(=O)Nc1cccc(Oc2ccnc3cc(C)oc23)c1 [Compound D28]")
"3 to 50 µM"
>>> reportedmeasurement("COc1cc(-c2cc3nccc(Nc4ccc5[nH]ccc5c4)c3o2)cc(OC)c1OC [Compound B30]")
"0.3 to 3 µM"
>>> reportedmeasurement("COc1cc(-c2cc3nccc(-c4cn[nH]c4)c3o2)cc(OC)c1OC [Compound C72]")
"3 to 50 µM"
>>> reportedmeasurement("CCC(=O)Nc1cccc(-c2cc3nccc(-c4ccccc4)c3o2)c1 [Compound D14]")
"3 to 50 µM"
>>> reportedmeasurement("COc1cc(-c2cc3nccc(-c4cc[nH]n4)c3o2)cc(OC)c1OC [Compound C73]")
"3 to 50 µM"
